assay: AUC in cynomolgus monkey at […], po; assay type: ADME, organism-based, Macaca fascicularis; set-up: dose 2.5 mg/kg, route oral; settings: plasma
MEASUREMENT_NAME: AUC

Task item: Which AUC value is on record for Cc1ccc(F)c(NC(=O)Nc2ccc(-c3cccc4[nH]nc(N)c34)cc2)c1 [LINIFANIB] ?
Reply: 600 ng·h/mL

* * *

assay: Oral bioavailability in cynomolgus monkey at […], po; format: ADME, organism-based, Macaca fascicularis; settings: in vivo
MEASUREMENT_NAME: bioavailability (%)
One number for each entry, in %.

Task item: Which bioavailability value is on record for Cc1ccc(F)c(NC(=O)Nc2ccc(-c3cccc4[nH]nc(N)c34)cc2)c1 [LINIFANIB] ?
Reply: 10.6

* * *

experiment: Volume of distribution in Sprague-Dawley rat at 5 mg/kg, iv; type: ADME, organism-based; set-up: dose 5 mg/kg, route intravenous; settings: in vivo, read-out: Vdss
MEASUREMENT_NAME: Vd (L/kg)
Numbers only, in L/kg.

Task item: Which Vd value is on record for Cc1ccc(F)c(NC(=O)Nc2ccc(-c3cccc4[nH]nc(N)c34)cc2)c1 [LINIFANIB] ?
Reply: 1.1

* * *

assay: Volume of distribution in cynomolgus monkey at […], iv; format: ADME, organism-based, Macaca fascicularis; parameters: dose 2.5 mg/kg, route intravenous; details: in vivo, read-out: Vdss
MEASUREMENT_NAME: Vd (L/kg)
Answers are plain numbers, in L/kg.

Task item: Which Vd value is on record for `Cc1ccc(F)c(NC(=O)Nc2ccc(-c3cccc4[nH]nc(N)c34)cc2)c1` ?
Reply: 2.2

* * *

test: Lipophilicity, log D at pH 7.4; format: physicochemical; details: buffer
MEASUREMENT_NAME: logD
Answers are plain numbers.

Task item: Which logD value is on record for `Cc1ccc(F)c(NC(=O)Nc2ccc(-c3cccc4[nH]nc(N)c34)cc2)c1` ?
Reply: 4.2

* * *

test: Clearance in Beagle dog at […], iv; assay type: ADME, organism-based, Canis lupus familiaris; set-up: dose 2.5 mg/kg, route intravenous; conditions: in vivo
MEASUREMENT_NAME: clearance (mL/min/kg)
Numbers only, in mL/min/kg.

Task item: Which clearance value is on record for `Cc1ccc(F)c(NC(=O)Nc2ccc(-c3cccc4[nH]nc(N)c34)cc2)c1` ?
Reply: 7.2

* * *

experiment: Oral bioavailability n Sprague-Dawley rat at 5 mg/kg, po; assay type: ADME, organism-based; conditions: in vivo
MEASUREMENT_NAME: bioavailability (%)
Answers are plain numbers, in %.

Task item: Which bioavailability value is on record for `Cc1ccc(F)c(NC(=O)Nc2ccc(-c3cccc4[nH]nc(N)c34)cc2)c1` ?
Reply: 27

* * *

assay: Clearance in Sprague-Dawley rat at 5 mg/kg, iv; settings: in vivo
MEASUREMENT_NAME: clearance (mL/min/kg)
One number for each entry, in mL/min/kg.

Task item: Which clearance value is on record for Cc1ccc(F)c(NC(=O)Nc2ccc(-c3cccc4[nH]nc(N)c34)cc2)c1 [LINIFANIB] ?
Reply: 3.3

* * *

experiment: AUC in Sprague-Dawley rat at 5 mg/kg, po; format: ADME, organism-based; parameters: dose 5 mg/kg, route oral; conditions: plasma
MEASUREMENT_NAME: AUC (ng·h/mL)
One number for each entry, in ng·h/mL.

Task item: Which AUC value is on record for `Cc1ccc(F)c(NC(=O)Nc2ccc(-c3cccc4[nH]nc(N)c34)cc2)c1` ?
Reply: 6800

* * *

assay: AUC in Beagle dog at […], po; assay type: ADME, organism-based, Canis lupus familiaris; parameters: dose 2.5 mg/kg, route oral; details: plasma
MEASUREMENT_NAME: AUC

Task item: Which AUC value is on record for `Cc1ccc(F)c(NC(=O)Nc2ccc(-c3cccc4[nH]nc(N)c34)cc2)c1` ?
Reply: 1500 ng·h/mL

* * *

experiment: AUC in CD1 mouse at 10 mg/kg, po; format: ADME, organism-based; parameters: dose 10 mg/kg, route oral; conditions: plasma
MEASUREMENT_NAME: AUC (µM·h)
Give bare numbers, in µM·h.

Examples with answers:
Cc1cccc(NC(=O)Nc2ccc(-c3cccc4[nH]nc(N)c34)cc2)c1 :: 6.5
Cc1cc(NC(=O)Nc2ccc(-c3cccc4[nH]nc(N)c34)cc2)ccc1F :: 10.9
Cc1ccc(F)c(NC(=O)Nc2ccc(-c3cccc4[nH]nc(N)c34)cc2)c1 :: 24.5
Nc1n[nH]c2cccc(-c3ccc(NC(=O)Nc4cccc(Cl)c4)cc3)c12 :: 15
Cc1cccc(NC(=O)Nc2ccc(-c3ccc(OCCN4CCOCC4)c4[nH]nc(N)c34)cc2)c1 :: 1

Consider the additional molecule presented here.
Task item: Which AUC value is on record for `Cc1cccc(NC(=O)Nc2ccc(-c3cccc4c3c(N)nn4C)cc2)c1` ?
Reply: 19.8

* * *

assay: Half life in cynomolgus monkey at […], iv; type: ADME, organism-based, Macaca fascicularis; parameters: dose 2.5 mg/kg, route intravenous; conditions: in vivo
MEASUREMENT_NAME: half-life (h)
Numbers only, in h.

Task item: Which half-life value is on record for `Cc1ccc(F)c(NC(=O)Nc2ccc(-c3cccc4[nH]nc(N)c34)cc2)c1` ?
Reply: 3.1

* * *

test: Oral bioavailability in CD1 mouse; format: ADME, organism-based; details: in vivo
MEASUREMENT_NAME: bioavailability (%)
Answers are plain numbers, in %.

Examples with answers:
Nc1n[nH]c2cccc(-c3ccc(NC(=O)Nc4cccc(Cl)c4)cc3)c12 :: 50
Cc1cccc(NC(=O)Nc2ccc(-c3cccc4c3c(N)nn4C)cc2)c1 :: 89

Provide bioavailability values for the following items, in order.
1. Cc1cc(NC(=O)Nc2ccc(-c3cccc4[nH]nc(N)c34)cc2)ccc1F
2. Cc1ccc(F)c(NC(=O)Nc2ccc(-c3cccc4[nH]nc(N)c34)cc2)c1
3. Cc1cccc(NC(=O)Nc2ccc(-c3cccc4[nH]nc(N)c34)cc2)c1

Reply:
66
100
38

Task item: Which bioavailability value is on record for `Cc1cccc(NC(=O)Nc2ccc(-c3ccc(OCCN4CCOCC4)c4[nH]nc(N)c34)cc2)c1` ?
Reply: 20

* * *

experiment: Volume of distribution in Beagle dog at […]; assay type: ADME, organism-based, Canis lupus familiaris; parameters: dose 2.5 mg/kg; settings: in vivo, read-out: Vdss
MEASUREMENT_NAME: Vd (L/kg)
Give bare numbers, in L/kg.

Task item: Which Vd value is on record for `Cc1ccc(F)c(NC(=O)Nc2ccc(-c3cccc4[nH]nc(N)c34)cc2)c1` ?
Reply: 1.2

Numbers sourced from ChEMBL document CHEMBL1142982.
